tested on: HOP-92 NSCLC; test: NCI-60 one-dose screen, 48 h; conditions: 10 µM
Compounds without any hit were thinned out: in the full panel of roughly 83,000, 20% have a hit. The source made the active and inactive calls. The calls were made as follows: active = growth percent below 10; inactive = the rest.
Outcome codes: active, inactive

{"COMPOUND": "COc1cccc(C(c2cc3c(cc2O)OCO3)N2CCOCC2)c1OC (stereo not drawn)", "ASSIGNED CATEGORY": "inactive"}
{"COMPOUND": "COc1ccc(N)c2c1C(=O)c1ccccc1C2=O", "ASSIGNED CATEGORY": "inactive"}
{"COMPOUND": "COc1ccc(C(C#N)=C2C=CC(=NO)C=C2)cc1", "ASSIGNED CATEGORY": "inactive"}
{"COMPOUND": "ClCCn1c(CCl)nc2ccc(Cl)cc21", "ASSIGNED CATEGORY": "active"}
{"COMPOUND": "C=C1N(C)c2ccc(Cl)cc2C1(C)C", "ASSIGNED CATEGORY": "inactive"}
{"COMPOUND": "O=C(O)c1ccccc1.[Ag]", "ASSIGNED CATEGORY": "inactive"}
{"COMPOUND": "Cc1cc(O)c2c(c1O)C(=O)C13C(=C2O)C(=O)C2C(O)C1C1C(O)C3C(=O)C3=C(O)c4c(O)cc(C)c(O)c4C(=O)C321 (stereo not drawn)", "ASSIGNED CATEGORY": "active"}
{"COMPOUND": "O=[N+]([O-])c1cc(S(=O)(=O)Nc2ccccc2)ccc1Cl", "ASSIGNED CATEGORY": "inactive"}
{"COMPOUND": "CCC(C)(c1ccc(O)c(C)c1)c1ccc(O)c(C)c1", "ASSIGNED CATEGORY": "inactive"}
{"COMPOUND": "Nc1nc(N)c2cc(Sc3ccc4ccccc4c3)ccc2n1", "ASSIGNED CATEGORY": "inactive"}
{"COMPOUND": "CN(CC(=O)O)c1ccc(/C=C/c2ccnc3ccccc23)cc1", "ASSIGNED CATEGORY": "inactive"}
{"COMPOUND": "CC(=O)O[C@H]1C(=O)[C@@]2(C)[C@H]([C@H](OC(=O)c3ccccc3)[C@]3(O)C[C@H](OC(=O)[C@H](O)[C@@H](NC(=O)c4ccccc4)c4ccccc4)C(C)=C1C3(C)C)[C@]1(OC(C)=O)CO[C@@H]1C[C@@H]2O", "ASSIGNED CATEGORY": "inactive"}
{"COMPOUND": "CCC(=O)Oc1ccc(/C=N/NC(N)=S)nc1", "ASSIGNED CATEGORY": "inactive"}
{"COMPOUND": "N#C/C(=C/N1C(=O)/C(=C/c2ccc([N+](=O)[O-])cc2)SC1=S)c1nc2ccccc2s1", "ASSIGNED CATEGORY": "inactive"}
{"COMPOUND": "CN(C)c1ccc(/C=C/c2ccnc3ccccc23)cc1N", "ASSIGNED CATEGORY": "active"}
{"COMPOUND": "NCc1c(O)ccc2ccccc12", "ASSIGNED CATEGORY": "inactive"}
{"COMPOUND": "O=Nc1ccc(Nc2ccccc2)cc1", "ASSIGNED CATEGORY": "inactive"}
{"COMPOUND": "CN(C)CCNc1cccc2sc3ccc(O)cc3c(=O)c12", "ASSIGNED CATEGORY": "inactive"}

----------
tested on: CCRF-CEM leukemia; test: NCI-60 one-dose screen, 48 h; conditions: 10 µM
About 83,000 compounds went through this panel and 20% of them were active in at least one assay; those are over-represented in the sample as a whole. Active and inactive are the calls of the source. The calls were made as follows: active = growth percent below 10; inactive = the rest.
Outcome codes: active, inactive

{"COMPOUND": "Cc1cc(C)c(N2C(=O)CC(Sc3ccccc3N)C2=O)c(C)c1 (stereo not drawn)", "ASSIGNED CATEGORY": "inactive"}
{"COMPOUND": "Cc1cc(N=C2C=CC(=[N+](C)C)C=C2)c(N)cc1N", "ASSIGNED CATEGORY": "inactive"}
{"COMPOUND": "NCc1c(O)ccc2ccccc12", "ASSIGNED CATEGORY": "inactive"}
{"COMPOUND": "CN(CC(=O)O)c1ccc(/C=C/c2ccnc3ccccc23)cc1", "ASSIGNED CATEGORY": "inactive"}
{"COMPOUND": "CCC(=O)Oc1ccc(/C=N/NC(N)=S)nc1", "ASSIGNED CATEGORY": "active"}
{"COMPOUND": "O=Nc1ccc(Nc2ccccc2)cc1", "ASSIGNED CATEGORY": "active"}
{"COMPOUND": "O=C1C(Cl)=C(Cl)C(Cl)(Cl)C(Cl)C1(Cl)Cl (stereo not drawn)", "ASSIGNED CATEGORY": "inactive"}
{"COMPOUND": "ClCCn1c(CCl)nc2ccc(Cl)cc21", "ASSIGNED CATEGORY": "active"}

----------
test system: SNB-75 CNS; assay: NCI-60 one-dose screen, 48 h (100 = growth as untreated, 0 = no growth, -100 = all killed); settings: 10 µM
Compounds without any hit were thinned out: in the full panel of roughly 83,000, 20% have a hit.
Entries annotated with measured growth
REPORTED ENDPOINT: growth (%)

{"COMPOUND": "N#C/C(=C/N1C(=O)/C(=C/c2ccc([N+](=O)[O-])cc2)SC1=S)c1nc2ccccc2s1", "TEST TARGET": "SNB-75 CNS", "VALUE MEASURED": 84.5}
{"COMPOUND": "O=C1C(Cl)=C(Cl)C(Cl)(Cl)C(Cl)C1(Cl)Cl (stereo not given)", "TEST TARGET": "SNB-75 CNS", "VALUE MEASURED": 88.9}
{"COMPOUND": "CC[C@@]1(OC(=O)CN(C)C)C(=O)OCc2c1cc1n(c2=O)Cc2cc3c(N)cccc3nc2-1", "TEST TARGET": "SNB-75 CNS", "VALUE MEASURED": -10.5}
{"COMPOUND": "S=C1SCN(CCc2ccccc2)CN1CCc1ccccc1", "TEST TARGET": "SNB-75 CNS", "VALUE MEASURED": 87.5}
{"COMPOUND": "COc1ccc(N)c2c1C(=O)c1ccccc1C2=O", "TEST TARGET": "SNB-75 CNS", "VALUE MEASURED": 95.6}
{"COMPOUND": "CC1CCC2(C(=O)O)CCC3(C)C(=CCC4C5(C)CC(O)C(O)C(C)(CO)C5C(O)CC43C)C2C1C (stereo not given)", "TEST TARGET": "SNB-75 CNS", "VALUE MEASURED": 91.8}
{"COMPOUND": "CN(CC(=O)O)c1ccc(/C=C/c2ccnc3ccccc23)cc1", "TEST TARGET": "SNB-75 CNS", "VALUE MEASURED": 90.3}
{"COMPOUND": "O=C(NC(=S)Nc1ccccn1)c1ccccc1", "TEST TARGET": "SNB-75 CNS", "VALUE MEASURED": 74.8}
{"COMPOUND": "N#CC(=C1C=CC(=NO)C=C1)c1ccccc1", "TEST TARGET": "SNB-75 CNS", "VALUE MEASURED": -1.66}
{"COMPOUND": "CN(C)CCNc1cccc2sc3ccc(O)cc3c(=O)c12", "TEST TARGET": "SNB-75 CNS", "VALUE MEASURED": 31.8}
{"COMPOUND": "O=C(O)c1ccccc1.[Ag]", "TEST TARGET": "SNB-75 CNS", "VALUE MEASURED": 110}
{"COMPOUND": "ClCCn1c(CCl)nc2ccc(Cl)cc21", "TEST TARGET": "SNB-75 CNS", "VALUE MEASURED": 20.7}
{"COMPOUND": "COc1ccc(C(C#N)=C2C=CC(=NO)C=C2)cc1", "TEST TARGET": "SNB-75 CNS", "VALUE MEASURED": 91.6}
{"COMPOUND": "C=C1N(C)c2ccc(Cl)cc2C1(C)C", "TEST TARGET": "SNB-75 CNS", "VALUE MEASURED": 62}
{"COMPOUND": "CCC(=O)Oc1ccc(/C=N/NC(N)=S)nc1", "TEST TARGET": "SNB-75 CNS", "VALUE MEASURED": 41}

----------
Entries annotated with measured growth
system: NCI-H522 lung; test: NCI-60 one-dose screen, 48 h (100 = growth as untreated, 0 = no growth, -100 = all killed); conditions: 10 µM
Compounds without any hit were thinned out: in the full panel of roughly 83,000, 20% have a hit. The source made the active and inactive calls. How the source made its calls: active means growth percent below 10; inactive means the rest.

{"MOLECULE": "COc1ccc(C(C#N)=C2C=CC(=NO)C=C2)cc1", "growth": "-24.7% (active)"}
{"MOLECULE": "Cc1cc(O)c2c(c1O)C(=O)C13C(=C2O)C(=O)C2C(O)C1C1C(O)C3C(=O)C3=C(O)c4c(O)cc(C)c(O)c4C(=O)C321 (stereo unspecified)", "growth": "5.74% (active)"}
{"MOLECULE": "Nc1nc(N)c2cc(Sc3ccc4ccccc4c3)ccc2n1", "growth": "31.4% (inactive)"}
{"MOLECULE": "Cn1ncc2cc3c(Nc4ccc(Cl)cc4)cccc3nc21", "growth": "83.8% (inactive)"}
{"MOLECULE": "O=C1C=CC(=O)N1c1ccc(N2C(=O)C=CC2=O)cc1", "growth": "-11.5% (active)"}
{"MOLECULE": "CN(C)c1ccc(/C=C/c2ccnc3ccccc23)cc1N", "growth": "56.6% (inactive)"}
